experiment: Cytoprotection in mouse CRL2181 cells assessed as reduction in UV-oxidized LDL-induced cytotoxicity by measuring cell viability at 1 uM after 24 hrs by MTT assay relative to untreated control; type: functional
property_name: Activity

[[record]]
compound = "O=C(N/N=C/c1ccccc1O)c1ccncc1"
property_name = "Activity"
result = "20%"

[[record]]
compound = "COc1cc(/C=N/N(C)c2nc3ccccc3s2)cc(OC)c1OC"
property_name = "Activity"
result = "7%"

[[record]]
compound = "COc1cc(/C=N/NC(=O)OCc2ccccc2)cc(O)c1O"
property_name = "Activity"
result = "34%"

[[record]]
compound = "COc1cc(/C=N/NC(=O)c2ccncc2)ccc1O [FTIVAZIDE]"
property_name = "Activity"
result = "36%"

[[record]]
compound = "COc1cc(/C=N/Nc2nncc3ccccc23)cc(O)c1O.Cl"
property_name = "Activity"
result = "69%"

[[record]]
compound = "Cc1c(C)c2c(c(C)c1O)CCC(C)(C(=O)O)O2 (stereo unspecified)"
property_name = "Activity"
result = "50%"

